meta.source: PubChem BioAssay AID1159580

# assay text: chemical genetic growth profiling, strain panel (AID 1159580);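 further: tested at 20 µM; growth read once vehicle control cultures reached saturation at 30 °C; 1 = growth at the plate median or of vehicle wells; lower values mean less growth of the strain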
# experimental setup: S. cerevisiae deletion strains, growth OD, locus YKL009W, strain mrt4, hits give low values
The whole screen tested about 5,500 compounds, of which about 2,000 (36%) were called active. Inconclusive results (about 18%) are left out. The list shows a part of the results.
endpoint label: normalized growth

molecule	endpoint label	experimental result
COc1ccc(-c2coc3c(OC)c(OC)cc(O)c3c2=O)cc1	normalized growth	0.972
COc1ccc(-c2coc3c(OC)c(OC)ccc3c2=O)cc1	normalized growth	0.988
Nc1nc2[nH]c(=O)c(=O)[nH]c2c(=O)[nH]1	normalized growth	0.998
COc1ccc2cc1Oc1ccc(cc1)C[C@H]1c3cc(c(OC)cc3CCN1C)Oc1c(OC)c(OC)cc3c1[C@H](C2)N(C)CC3	normalized growth	1.02
CN1C2CC3C[C@H]1C(O3)C2O (stereo not given in full)	normalized growth	1.02

---

# assay text: chemical genetic growth profiling, strain panel (AID 1159580)
# experimental setup: S. cerevisiae deletion strains, growth OD, locus YKR001C, strain vps1, hits give low values
Among all 5,500 compounds or so, about 2,000 (36%) were called active. Another 18% or so got no clear call; they are omitted. Some of the results follow.
endpoint label: normalized growth

compound	experimental result
CNC1(C)C2CCC(C2)C1(C)C (configuration not stated)	0.997
CC(=C(CCOP(=O)(O)O)SC(=O)c1ccccc1)N(C=O)Cc1cnc(C)nc1N	1.01
CC(C)[N+](C)(CCOC(=O)C1c2ccccc2Oc2ccccc21)C(C)C	1.01
CCCCCC(C)N (configuration not stated)	0.988
CCC(C(=O)O)c1ccccc1 (configuration not stated)	0.987
C[N+](C)(C)CC(=O)[O-]	0.982
CC(=O)OCC(CCn1cnc2cnc(N)nc21)COC(C)=O	0.986

---

# assay text: chemical genetic growth profiling, strain panel (AID 1159580)
# experimental setup: S. cerevisiae deletion strains, growth OD, locus YBR021W, strain FUR4, hits give low values
The whole screen tested about 5,500 compounds, of which about 2,000 (36%) were called active. Roughly 18% stayed inconclusive and do not appear here. This is one part of the list.
// reported normalized growth for each item listed

compound	normalized growth
CCCCOc1ccc(CC(=O)NO)cc1	1.02
CN1CCc2cc3c(cc2C1O)OCO3 (stereo unspecified)	1.08
C1CCc2nnnn2CC1	1.01
Cn1cc[nH]c1=S	0.991
CCC1(c2ccccc2)C(=O)NCNC1=O	1
CC(=C(CCOP(=O)(O)O)SC(=O)c1ccccc1)N(C=O)Cc1cnc(C)nc1N	1.01

---

# assay text: chemical genetic growth profiling, strain panel (AID 1159580)
# experimental setup: S. cerevisiae deletion strains, growth OD, locus YML120C, strain ndi1, hits give low values
In all, about 5,500 compounds went through this assay and about 2,000 (36%) were called active. Not shown: some 18% with an inconclusive outcome. Some of the results follow.

compound	normalized growth
CC(=O)CC(=O)CCC(=O)O	1
CC(C)CC1C(=O)N2CCC[C@H]2C2(O)O[C@](NC(=O)C3C=C4c5cccc6[nH]c(Br)c(c56)C[C@H]4N(C)C3)(C(C)C)C(=O)N12 (some centres undefined)	0.992
CC(C)(CO)C(O)C(=O)NCCCO (centres undefined)	1.01
CCCCCC(=O)O[C@]1(C(C)=O)CCC2C3CCC4=CC(=O)CC[C@]4(C)C3CC[C@@]21C (some centres undefined)	1

---

# assay text: chemical genetic growth profiling, strain panel (AID 1159580)
# experimental setup: S. cerevisiae deletion strains, growth OD, locus YNL175C, strain NOP13, hits give low values
Out of some 5,500 compounds screened, about 2,000 (36%) were called active. Not shown: some 18% with an inconclusive outcome. The list shows a part of the results.

compound	normalized growth
COc1cc(C(O)C(=O)O)ccc1O (centres undefined)	0.992
Nc1cc(Cl)c(NC2=NCCN2)c(Cl)c1	1.02
COc1ccccc1N1CCN(CCCCNC(=O)c2ccc3ccccc3c2)CC1	1.03
CC(N)Cc1c[nH]c2ccc(O)cc12 (centres undefined)	1.01

---

# assay text: chemical genetic growth profiling, strain panel (AID 1159580);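 further: tested at 20 µM; growth read once vehicle control cultures reached saturation at 30 °C; 1 = growth at the plate median or of vehicle wells; lower values mean less growth of the strain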
# experimental setup: S. cerevisiae deletion strains, growth OD, locus YMR307W, strain GAS1, hits give low values
The campaign covered roughly 5,500 compounds. About 2,000 (36%) were called active. About 18% were inconclusive and are not listed. Some of the results follow.
Consider the cut-off 1. If the recorded normalized growth is strictly smaller, the label is Condition met; if not, the label is Condition not met.

compound	assigned category
CC1(C)/C(=N/OC(=O)c2cccc(C(F)(F)F)c2)[C@]2(C)CCC1C2	Condition met
CCC1(C)CC(=O)NC1=O (stereo unspecified)	Condition not met
COc1cc(OC)c2c(c1)OC(c1ccc(OC)c(OC)c1)C(O)C2 (stereo unspecified)	Condition not met
CC(C)Oc1cccnc1N(C)C1CCN(Cc2ccccc2)CC1	Condition not met
NC(N)=Nc1nc(CSCCC(N)=NS(N)(=O)=O)cs1	Condition met
COc1ccccc1CC(=O)NC1CCN(Cc2ccccc2)CC1	Condition not met
O=c1ccc2ccccc2o1	Condition not met
CCC1(c2ccc(N)cc2)CCC(=O)NC1=O (stereo unspecified)	Condition met
COc1ccc2c(c1)OC[C@@H](Cc1ccc(OC)c(OC)c1)[C@H]2O	Condition not met

---

// reported normalized growth for each item listed
# assay text: chemical genetic growth profiling, strain panel (AID 1159580);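 further: tested at 20 µM; growth read once vehicle control cultures reached saturation at 30 °C; 1 = growth at the plate median or of vehicle wells; lower values mean less growth of the strain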
# experimental setup: S. cerevisiae deletion strains, growth OD, locus YLR342W, strain FKS1 (second series), hits give low values
Hit rate of the full screen: of about 5,500 compounds, about 2,000 (36%) were called active. Inconclusive results (about 18%) are left out. This is one part of the list.
endpoint label: normalized growth

molecule	experimental result
CCCCOc1ccc(C(=O)CCN2CCCCC2)cc1	0.432
c1ccc(CN(CC2=NCCN2)c2ccccc2)cc1	1.03
CN1C2CC3C[C@H]1C(O3)C2O (stereo not given in full)	1
OC(CCN1CCCCC1)(c1ccccc1)c1ccccc1	1.02
COc1ccc(C2CC(=O)c3ccc(OC)cc3O2)cc1 (stereo not given)	0.705
N=c1nc(N2CCCCC2)cc(N)n1O	0.98
S=C=NCc1ccccc1	0.0771
CCC(C(N)=O)c1ccccc1 (stereo not given)	1.02
CCC1(c2ccc(N)cc2)CCC(=O)NC1=O (stereo not given)	1.02
CCCCOc1ccc(OCCCN2CCOCC2)cc1	0.87
c1ccc(CC2=NCCN2)cc1	1.01
CCc1cccc(C)c1N(C(=O)CCl)C(C)COC (stereo not given)	1.04
O=C(O)c1ccccc1OP(=O)(O)O	1
CCC1(c2ccccc2)C(=O)NCNC1=O	1.01
CC1(C)C2CC[C@]3(C)C(C(=O)C=C4[C@@H]5C[C@@](C)(C(=O)O)CC[C@]5(C)CC[C@]43C)[C@@]2(C)CC[C@@H]1OC(=O)CCC(=O)O (stereo not given in full)	0.995
COC(=O)c1c(Cl)c(Cl)c(C(=O)OC)c(Cl)c1Cl	1.01
COc1ccc(-c2coc3c(OC)c(O)ccc3c2=O)cc1	0.86
C[CH2][Hg][S]c1ccccc1C(=O)O	0.0638
CC(C)N(C(=O)CCl)c1ccccc1	0.989
CC1(C)C2CC[C@]3(C)C(C(=O)C=C4[C@@H]5C[C@@](C)(C(=O)O)CC[C@]5(C)CC[C@]43C)[C@@]2(C)CC[C@@H]1O (stereo not given in full)	0.977
COc1ccc(C(=O)c2ccccc2)c(O)c1	0.763
COc1ccc(-c2coc3c(OC)c(OC)ccc3c2=O)cc1	0.912
COC1C(O)C(O)C(O)[C@@H](O)C1O (stereo not given in full)	1.08
OCCN(CCO)c1nc(N2CCCCC2)c2nc(N(CCO)CCO)nc(N3CCCCC3)c2n1	1.02
COc1ccc([C@@H]2CC(=O)c3c(O)cc(O)cc3O2)cc1O	0.979
C[N+](C)(C)CC(=O)[O-]	1.04
NC(=O)N1c2ccccc2CC(=O)c2ccccc21	0.949
NC(N)=NOCC[C@H](N)C(=O)O	1.01
CC(C)[N+](C)(CCOC(=O)C1c2ccccc2Oc2ccccc21)C(C)C	1.02
COc1ccc(-c2coc3c(O)c(OC)ccc3c2=O)cc1	0.843
Cc1ccc(C(=O)C(C)CN2CCCCC2)cc1 (stereo not given)	0.973
CC1(C)S[C@@H]2[C@H](NC(=O)[C@H](NC(=O)N3CCNC3=O)c3ccccc3)C(=O)N2C1C(=O)O (stereo not given in full)	1.01
O=C1C[C@@H](c2ccc(O)cc2)Oc2cc(O)cc(O)c21	0.989
Nc1nc2[nH]c(=O)c(=O)[nH]c2c(=O)[nH]1	0.973
CCCCCCCCCCCCC[N+](C)(C)Cc1ccccc1	0.0621

---

// reported normalized growth for each item listed
# assay text: chemical genetic growth profiling, strain panel (AID 1159580);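 further: tested at 20 µM; growth read once vehicle control cultures reached saturation at 30 °C; 1 = growth at the plate median or of vehicle wells; lower values mean less growth of the strain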
# experimental setup: S. cerevisiae deletion strains, growth OD, locus YEL061C, strain CIN8 (second series), hits give low values
Screen size: about 5,500 compounds; about 2,000 (36%) were called active. Another 18% or so got no clear call; they are omitted. Some of the results follow.
endpoint label: normalized growth

compound	endpoint label	experimental result
CCCCCC(=O)O[C@]1(C(C)=O)CCC2C3CCC4=CC(=O)CC[C@]4(C)C3CC[C@@]21C (some centres undefined)	normalized growth	1
Cc1ccc2c(c1)CC[C@H]1CC(=O)CC[C@]21C	normalized growth	0.993
CC(=O)OCC(CCn1cnc2cnc(N)nc21)COC(C)=O	normalized growth	0.988
NCC1CCCCC1CC(=O)O (centres undefined)	normalized growth	1.02
